Catalogue of MIC values
System: S. pneumoniae mef A genotype (first strain so labelled)
Experiment: CLSI broth dilution MIC determination
Assay type: cell-based
Details: Streptococcus pneumoniae, first strain (MP-626 UNT-038)
Please reply with the bare figure in µg/mL and do not write the unit itself.

molecule	MIC / µg/mL
CC[C@H]1OC(=O)[C@H](C)[C@@H](O[C@H]2C[C@@](C)(OC)[C@@H](O)[C@H](C)O2)[C@H](C)[C@@H](O[C@@H]2O[C@H](C)C[C@H](N(C)C)[C@H]2O)[C@](C)(O)C[C@@H](C)CN(C)[C@H](C)[C@@H](O)[C@]1(C)O [Azithro, azithromycin, reference compound]	0.25

Fill blank: measured MIC of the molecule C=C1C(=O)[C@H](C)C[C@@](C)(OC)[C@H](O[C@@H]2OC(C)CC(N(C)C)C2O)[C@@H](C)C(=O)[C@@H](C)C(=O)O[C@H](CC)[C@@]2(C)OC(=O)N(CCCCn3cc(-c4cccc(N)c4)nn3)[C@H]12 (stereo partly shown) is ____. 0.0625

Could you tell me which MIC is on file for CC[C@H]1OC(=O)[C@H](C)C(=O)[C@H](C)[C@@H](O[C@@H]2OC(C)CC(N(C)C)C2O)[C@](C)(OC)C[C@@H](C)C(=O)C[C@H]2N(CCCCn3cc(-c4cccc(N)c4)nn3)C(=O)O[C@]12C (stereo partly shown) ? 0.0625

For CC[C@H]1OC(=O)[C@@H](C)C(=O)[C@H](C)[C@@H](O[C@@H]2OC(C)CC(N(C)C)C2O)[C@](C)(OC)C[C@@H](C)C(=O)[C@H](C)[C@H]2N(C/C=C/Cn3cc(-c4cccc(N)c4)nn3)C(=O)O[C@]12C (stereo partly shown) , what is its reported MIC? 0.125
